# Tgt: T1, human IL-1RAcP on 293T/17-FR cells (human, UniProt Q9NPH3 21-570)
# T1 sequence (looked up): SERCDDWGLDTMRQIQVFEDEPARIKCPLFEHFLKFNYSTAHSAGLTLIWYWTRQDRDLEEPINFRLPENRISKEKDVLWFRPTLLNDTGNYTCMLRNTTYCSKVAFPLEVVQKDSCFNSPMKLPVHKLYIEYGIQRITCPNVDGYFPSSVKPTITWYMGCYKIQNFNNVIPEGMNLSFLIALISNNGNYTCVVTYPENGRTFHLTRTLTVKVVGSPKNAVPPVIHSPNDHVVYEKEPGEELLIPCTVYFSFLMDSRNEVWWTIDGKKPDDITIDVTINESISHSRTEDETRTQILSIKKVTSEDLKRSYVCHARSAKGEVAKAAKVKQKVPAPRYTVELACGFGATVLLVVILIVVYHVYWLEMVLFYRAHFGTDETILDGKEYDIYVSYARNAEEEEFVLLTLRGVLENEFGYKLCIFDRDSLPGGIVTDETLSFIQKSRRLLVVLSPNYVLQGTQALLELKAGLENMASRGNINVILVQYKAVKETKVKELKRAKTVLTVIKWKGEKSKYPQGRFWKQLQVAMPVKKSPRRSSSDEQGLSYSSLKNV
# Test Summary: cell-based or functional assay
Form field: functional reporter gene assay (% inhibition), 0.2 µg/mL mAb (one value per entry).
Reply numerically in %, unit not repeated.

Example entries begin here.
Binder: P013.S.01.B.C05 (antibody, V domains shown, rabbit monoclonal antibody; also called P013.A.00045.E06) VH: QSVEESGGRLVTPGTPLTLTCTVSGFSLSNYAMSWVRQAPGKGLEYIGIIDSGGSAYYATWARGRFTISRTSTTVDLKMTSPTTEDTATYFCARGGPAYSTNTHYTLDLWGPGTLVTVSS VL: AFEMTQTPSSVSEPVGGTVTIKCQASQSIYNYLSWYQQKPGQPPKLLIYDASELASGVPSRFKGSGSGTEFTLTISGVQSDDAATYYCQQGATTYNIENVFGGGTEVVVK
Result Value: 74
//
Binder: P013.S.01.B.B02 (antibody, V domains shown, rabbit monoclonal antibody; also called P013.A.00014.B03) VH: LEQSGGGAEGGLVKPGGSLELCCKASGFSLSSSYWICWVRQAPGKGLEWIGCIYTGSSGITYYASWVNGRFTLSRDIDQSTGCLQLNSLTAADTAMYYCAKDGPSTLFNFWGQGTLVTVSS VL: ALVMTQTPSPVSAAVGGTVTINCQASEDIYSNLAWFQQKPGQPPKLLIYRASTLASGVPSRFKGSGSGTEFTLTISGLQSDDAATYYCLGVYTYPSADNAFGGGTEVVVR
Result Value: 84

Attention now shifts to the item below.
Exam item: Requested field: functional reporter gene assay (% inhibition), 0.2 µg/mL mAb. Item: P013.S.02.B.F05 (antibody, V domains shown, rabbit monoclonal antibody; also called P013.A.00109.B04) VH: RSLEESGGDLVKPGTSLTLTCTASGFSFSGNYYMCWVRQAPGKGLEWIACIVVGSGGNTYYAGWAKRRFTISKTSSTTVTLQMTSLTAADTATYFCASGSYDDYGDYWYFTLWGQGTLVTVSS VL: AIDMTQTPSPASAGVGDTVTINCQASENIYNFLAWYQQKPGHSPKLLIYVASKLASGVPSRFKGSGSGTQFTLTISDVQSDDAATYYCQQTYRYNDGDTAFGGGTEVVVK
Marked response: 5
